Recorded values, source PubChem BioAssay AID1850.

# assay-procedure: PhoP regulon inhibitors, Salmonella typhi PhoP promoter GFP reporter, confirmatory (AID 1850);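 note: 0% = induced wells with vehicle and 100% = uninduced wells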
# condition-details: fluorescence, 4 h, at 50 µM, active compounds read high
In all, about 310,000 compounds went through this assay and about 1,000 (0.32%) were called active. Not all results are given here. Potency and affinity values are given separately.
Below is a list of entries, each paired with its recorded inhibition value.
Report the value in % with no unit label.

- molecule: "CCc1nnc(NC(=O)C=C(C)C)s1"
  parameter-measured: "inhibition"
  recorded-result: -12.1

Exercise: Requested read-out: inhibition. Entry: O=C(C1CC(c2ccccc2O)=NO1)N1CCc2ccccc2C1 (centres undefined)
Solution: -3.18

Exercise: And CCSP1(=S)N=C(N2CCOCC2)C(C#N)=C2CCCN21 (centres undefined) ?
Solution: -5.06

Exercise: Another: CCOC(=O)C1CCN(C(=S)NC2CC3C=CC2C3)CC1 (centres undefined)
Solution: 6.08

Exercise: Then CCCCCC(=O)N/N=C/c1ccc([N+](=O)[O-])o1 ?
Solution: 17.1

Exercise: // same read-out, input: FC(F)(F)c1ccc(N/N=C/c2cccnc2)nc1
Solution: -6.21

Exercise: Ok, now Fc1cccc(/C=N/Nc2ccccn2)c1
Solution: -0.26

Exercise: Entry to check: Cc1cc(C(=O)N/N=C/c2ccc([N+](=O)[O-])o2)c(C)o1
Solution: -1.11

Exercise: Follow-up item: CCOc1ccc(N(CC(=O)NC2CCCCC2)C(=O)CCC(=O)Nc2cc(C)ccn2)cc1
Solution: 2.46
